The following sequences are shown together with reported amyloid nucleation score values.
Assay: amyloid nucleation score (Sup35N fusion, yeast selection) (log enrichment); library NNK1; higher = more nucleation; inactive = no reads after selection;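 note: zero at mode of non-aggregating sequences after 7 days selection at 30°C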

{"residues": "VVLPWSFIWRCGVERQ", "quantity.name": "amyloid nucleation score", "result": -0.812}
{"residues": "MVRCNYRRRVGGDT", "quantity.name": "amyloid nucleation score", "result": 0.905}
{"residues": "FAQFSAWRTTNGRYKHHFTL", "quantity.name": "amyloid nucleation score", "result": -0.256}
{"residues": "YPYTSLRQGRDTRNREGLQC", "quantity.name": "amyloid nucleation score", "result": 0.301}

## Input State its amyloid nucleation score: YAFWFLCGYALP
## Output 2.92

## Input State its amyloid nucleation score: VFGHIGIDRGI
## Output 2.74

## Input State its amyloid nucleation score: FVHVYLERDRPNLTPFI
## Output 0.084

## Input State its amyloid nucleation score: NMGTVMYGVIQACRAHVNVV
## Output 0.22

## Input State its amyloid nucleation score: IFIFYGTRGSFRLRVAY
## Output 2.72

* * *

Experiment: amyloid nucleation score (Sup35N fusion, yeast selection) (log enrichment); library NNK1; higher = more nucleation; inactive = no reads after selection
Category | rule: reported amyloid nucleation score within range, see low interval: < -0.1; middle interval: ≥ -0.1 and < 0.1; high interval: ≥ 0.1

{"residues": "HHNNDSDYKLREN", "answer.label": "high interval"}
{"residues": "LFMGVRTKVNGSAVI", "answer.label": "high interval"}
{"residues": "QCVRLDVTT", "answer.label": "low interval"}
{"residues": "CDWSCSDSVCFITLCKYDDC", "answer.label": "high interval"}
{"residues": "WMTHWVLSYTTNLLIWVHGW", "answer.label": "middle interval"}
{"residues": "YKIVIKSGQSAN", "answer.label": "low interval"}
{"residues": "GESCLDSRFRNDDNR", "answer.label": "middle interval"}
{"residues": "QYSVHINNVTLRPKHRYVQ", "answer.label": "middle interval"}
{"residues": "RGVYNDSMERMPDNCSFYNK", "answer.label": "low interval"}
{"residues": "IHGNDPMLTVGSSMYV", "answer.label": "high interval"}

## Input Classify this sequence: LHLERALLTNRLFRS
## Output middle interval

## Input Classify this sequence: WRLRCLRELV
## Output low interval

* * *

Test: amyloid nucleation score (Sup35N fusion, yeast selection) (log enrichment); library NNK1; higher = more nucleation; inactive = no reads after selection
Entry flag: condition met if amyloid nucleation score reaches 0.02; condition not met if it does not.

Worked examples follow.
{"substance": "KFWTGPIRYVN", "answer.label": "condition not met"}
{"substance": "ASRYGSLVPRVVKHLMTRGN", "answer.label": "condition not met"}
{"substance": "GFLNYHWAGSYFERGM", "answer.label": "condition met"}

## Input Determine whether measured amyloid nucleation score meets or exceeds 0.02 for LGWDDVVY
## Output condition met

## Input Determine whether measured amyloid nucleation score meets or exceeds 0.02 for SCAAILEDVVHSAHILYLSH
## Output condition not met

* * *

Test: amyloid nucleation score (Sup35N fusion, yeast selection) (log enrichment); library NNK1; higher = more nucleation; inactive = no reads after selection
Category | rule: reported amyloid nucleation score within range, see low interval: < -0.2; middle interval: ≥ -0.2 and < 0.3; high interval: ≥ 0.3

## Input Classify this sequence: MRISMSVSLLFSYSQYVKLE
## Output low interval

## Input Classify this sequence: CSWDYMVVR
## Output middle interval

## Input Classify this sequence: KLKQVCPLTPVSRVSEQGKK
## Output low interval

## Input Classify this sequence: EYGLVRTLPVFRRVRRKYVG
## Output low interval

## Input Classify this sequence: RYTFQFNYV
## Output middle interval

## Input Classify this sequence: KFRRLQARFASMMSSTFT
## Output high interval

* * *

The following substances are shown together with reported amyloid nucleation score values.
Assay: amyloid nucleation score (Sup35N fusion, yeast selection) (log enrichment); library NNK1; higher = more nucleation; inactive = no reads after selection
Please reply with the number alone, leaving off any unit.

// known answers, use as guide
{"substance": "RSSCVELGWIGWRARTNR", "amyloid nucleation score": 0.407}
{"substance": "LVNNSSCYHCQRLGQLEVNK", "amyloid nucleation score": 0.215}
{"substance": "IVDCYSLDRYRVLLWSS", "amyloid nucleation score": 0.566}
{"substance": "SIYDARRMVRVHTFHEGLL", "amyloid nucleation score": -0.577}
{"substance": "HSFMYKENAGMSGTLR", "amyloid nucleation score": 0.187}

## Input State its amyloid nucleation score: SASPLVAMDNVGCA
## Output -0.748

## Input State its amyloid nucleation score: SLYKMVMCNGYSCLLLYLVC
## Output 0.353

## Input State its amyloid nucleation score: CHLTMIMNLVIMMAWNPLHC
## Output 0.765

## Input State its amyloid nucleation score: REDKYHIVVT
## Output -0.275

## Input State its amyloid nucleation score: SLNFPLLSQPAPIFVLSDKG
## Output 0.974

## Input State its amyloid nucleation score: AVVDRDMHYASTCSGGVGCH
## Output -0.186

## Input State its amyloid nucleation score: SWNLGADIAMDDHVESV
## Output 0.601

## Input State its amyloid nucleation score: LLLRSAAESRVSLDEEARGT
## Output 0.191

* * *

The following substances are shown together with reported amyloid nucleation score values.
Assay: amyloid nucleation score (Sup35N fusion, yeast selection) (log enrichment); library NNK1; higher = more nucleation; inactive = no reads after selection
Please reply with the number alone, leaving off any unit.

// known answers, use as guide
{"substance": "YNSWFI", "amyloid nucleation score": 0.586}
{"substance": "LISPVQSNTSAMVCELSDPY", "amyloid nucleation score": 0.56}
{"substance": "LISACDRSPSVIPI", "amyloid nucleation score": 0.252}
{"substance": "TYQTVSKKSEFIMPFGLCSN", "amyloid nucleation score": -0.011}
{"substance": "TVHSLV", "amyloid nucleation score": -0.276}

## Input State its amyloid nucleation score: DRHRLPILVFLITNRTQRMV
## Output -0.098

## Input State its amyloid nucleation score: ASLRLSTSLCEYGYRGRYTK
## Output -0.05

## Input State its amyloid nucleation score: KLIVWDKCSTCHSDVVLLFK
## Output 0.734

## Input State its amyloid nucleation score: CIYIQYYLNLTVFCRVRLNA
## Output -0.516

## Input State its amyloid nucleation score: NFDSELFSPLMISDVREFTK
## Output 1.62

* * *

Assay: amyloid nucleation score (Sup35N fusion, yeast selection) (log enrichment); library NNK3; higher = more nucleation; inactive = no reads after selection
quantity.name: amyloid nucleation score

// known answers, use as guide
{"substance": "EVYMFFSCPSSNHVWDSRYV", "result": "inactive"}
{"substance": "IMIGKVLFFGVATRMSVLRL", "result": "inactive"}
{"substance": "ADRMDGDSTGFYSTNLRGYS", "result": "inactive"}
{"substance": "YPFLSIGLYQCRS", "result": "inactive"}
{"substance": "AYFIPYNTWFYKKGMARQFF", "result": "inactive"}
{"substance": "CIMALGSNVLFRLEN", "result": 1.51}

## Input State its amyloid nucleation score: NVRFDGKVWLG
## Output 0.744

## Input State its amyloid nucleation score: QSQLGPDCRSYTGGERVLDV
## Output inactive

## Input State its amyloid nucleation score: CVVTGMMYTVFDKAFCFNAS
## Output 1.89

## Input State its amyloid nucleation score: LSTQNRISASREMMDTDILG
## Output 0.8

## Input State its amyloid nucleation score: VRYSPDRKFGETCIKQAVMT
## Output inactive

## Input State its amyloid nucleation score: YIDFVPLVYTRKFDGEETCI
## Output inactive

## Input State its amyloid nucleation score: TVACNVFYQLCVE
## Output inactive

## Input State its amyloid nucleation score: RHEVYSTANYHVCSCRFFIV
## Output 0.406

## Input State its amyloid nucleation score: AVCYRLWFKM
## Output inactive

## Input State its amyloid nucleation score: PIMVRRHEGSH
## Output inactive

## Input State its amyloid nucleation score: RSQALFLNWTCDCGGYINQI
## Output 1.01

## Input State its amyloid nucleation score: WKALFSSTSCYTGVG
## Output inactive

## Input State its amyloid nucleation score: GCSWLFSSLCFLGDNALGST
## Output inactive

## Input State its amyloid nucleation score: YINFISWNVCVSCLFWLDSV
## Output 2.09

## Input State its amyloid nucleation score: YRWSPWYNYCSSWTWCQMST
## Output 1.51

## Input State its amyloid nucleation score: CFLCFTPHSFHVCSI
## Output inactive

## Input State its amyloid nucleation score: FSYCDGRLLSSNRYYSESLY
## Output inactive

## Input State its amyloid nucleation score: ERRIKDLTECSNR
## Output inactive

## Input State its amyloid nucleation score: HVAIPTGLSKSNSQLYS
## Output inactive

## Input State its amyloid nucleation score: ADFDDHDYLVMCDWWINMHS
## Output inactive

## Input State its amyloid nucleation score: GMDCNKIRLASSWVYYLTSE
## Output inactive

## Input State its amyloid nucleation score: MEINAVPD
## Output inactive
